test: Acute toxicity in iv dosed dog; format: organism-based, Canis lupus familiaris; conditions: in vivo
observation type: LD50 (mg/kg)
Answers are plain numbers, in mg/kg.

# compound, number
rows = [
    ("CO[C@@H]1O[C@H](CO)[C@@H](O)[C@H](O)[C@H]1NC(=O)N(C)N=O", 400),
]

From here, focus on the item given below.
For reference, reported LD50 for `CN(N=O)C(=O)N[C@@H](C=O)[C@@H](O)[C@H](O)[C@H](O)CO` stands at 50

* * *

test: Antitumor activity against mouse S180A allografted in ICR mouse assessed as tumor growth at 50 mg/kg, ip qd for 5 days measured on day 7 relative to control; format: functional; details: route intraperitoneal
observation type: T/C (%)
Numbers only, in %.

Would you please look over these solved cases?
# compound, number
records = [
    ("CCO[C@H]1O[C@H](CO)[C@@H](O)[C@H](O)[C@H]1NC(=O)N(C)N=O", 38),
    ("CCO[C@H]1O[C@H](CO)[C@@H](O)[C@H](O)[C@H]1NC(=O)N(CC)N=O", 63),
    ("CCCO[C@@H]1O[C@H](CO)[C@@H](O)[C@H](O)[C@H]1NC(=O)N(C)N=O", 32),
]

Could I get T/C for every one of these entries?
1. CN(N=O)C(=O)N[C@@H](C=O)[C@@H](O)[C@H](O)[C@H](O)CO
2. CCCCO[C@H]1O[C@H](CO)[C@@H](O)[C@H](O)[C@H]1NC(=O)N(CCCC)N=O

Result:
1: 26; 2: 80

* * *

For each entry below, report its ILS at 100 mg/kg value.
test system: L1210; assay: Antitumor activity against mouse L1210 cells allografted in BDF1 mouse assessed as increase in host lifespan at 100 mg/kg, ip qd for 5 days relative to control; format: functional; settings: 120 h, route intraperitoneal
Numbers only, in %.

Would you please look over these solved cases?
# compound, number
rows = [
    ("CCO[C@H]1O[C@H](CO)[C@@H](O)[C@H](O)[C@H]1NC(=O)N(CC)N=O", 14),
    ("CCCN(N=O)C(=O)N[C@H]1[C@H](OC)O[C@H](CO)[C@@H](O)[C@@H]1O", 7),
    ("CN(N=O)C(=O)N[C@@H](C=O)[C@@H](O)[C@H](O)[C@H](O)CO", 76),
]

From here, focus on the item given below.
Summary line: `CCO[C@@H]1O[C@H](CO)[C@@H](O)[C@H](O)[C@H]1NC(=O)N(CC)N=O` , L1210, reported ILS at 100 mg/kg = 10

* * *

assay: Therapeutic index, ratio of LD10 for JCL-ICR mouse to ED90 for mouse S180A cells allografted in ICR mouse; details: read-out: TI
For each entry below, report its selectivity ratio value.
Give bare numbers.

# compound, selectivity ratio
data = [
    ("CO[C@@H]1O[C@H](CO)[C@@H](O)[C@H](O)[C@H]1NC(=O)N(C)N=O", 16),
]

From here, focus on the item given below.
For reference, reported selectivity ratio for `CN(N=O)C(=O)N[C@@H](C=O)[C@@H](O)[C@H](O)[C@H](O)CO` stands at 2.6

* * *

assay: Antitumor activity against mouse S180A allografted in ICR mouse assessed as tumor growth at 50 mg/kg, ip qd for 5 days measured on day 7 relative to control; type: functional; settings: route intraperitoneal
# strict inequality: T/C < 60% yields T, everything else yields F

Use these answered entries as a reference point.
# compound, category
rows = [
    ("CCCN(N=O)C(=O)N[C@H]1[C@@H](OC)O[C@H](CO)[C@@H](O)[C@@H]1O", "T"),
    ("CCCN(N=O)C(=O)N[C@H]1[C@H](OC)O[C@H](CO)[C@@H](O)[C@@H]1O", "F"),
    ("CCCCN(N=O)C(=O)N[C@H]1[C@H](OC)O[C@H](CO)[C@@H](O)[C@@H]1O", "T"),
]

Next item in the queue.
Ask: Check if T/C falls below 60% for `CCCCO[C@H]1O[C@H](CO)[C@@H](O)[C@H](O)[C@H]1NC(=O)N(C)N=O` .
Result: T
